Where these numbers come from: PubChem BioAssay (NCI)

System: HCT-116 colon
Experiment: NCI tumour cell line growth inhibition, 48 h
Where a SMILES comes first, the peptide text is derived from it. Bridges are numbered along the chain shown (N, C = ends). The star is where a group is joined. Cbz = O=C(OCc1ccccc1)*
Would you mind telling me the reported TGI of each entry?

Documented TGI of NS(=O)(=O)c1ccc(NC(=S)NC(=O)Nc2ccc(Cl)c(Cl)c2)cc1 : 27.7 µM

Documented TGI of COc1cc2cc(NCc3cccc(Cl)c3)nc(C)c2cc1OC : 9.63 µM

Documented TGI of Cc1cn([C@@H]2O[C@H](CO[Si](C)(C)C(C)(C)C)[C@]3(O[C@H]3C(=O)NO)[C@H]2O[Si](C)(C)C(C)(C)C)c(=O)[nH]c1=O : 2.85 µM

Documented TGI of O=C(CCC(=O)c1ccsc1)c1ccsc1 : > 100 µM

Documented TGI of O=c1c2ccccc2nc(-c2cccc([N+](=O)[O-])c2)n1O : > 100 µM

Documented TGI of O=C1NN2CC(c3ccccc3)=NN=C2c2ccccc21 : 36.7 µM

Documented TGI of COC(=O)NC(=O)NC(Cc1ccccc1)NC(=O)OCc1ccccc1 (centres undefined) : > 100 µM

Documented TGI of Cc1nnc2n1N=C(c1cc(F)c(Cl)cc1Cl)/C(=C/c1ccc(-c3ccc([N+](=O)[O-])cc3)o1)S2 : > 100 µM

Documented TGI of CC(C)=CCc1cc2c(cc1O)C1=C(C(=O)C3=C(NCCS3(=O)=O)C1=O)C(C=C(C)C)O2 (centres undefined) : > 16.7 µM

Documented TGI of CCOC(=O)CC1=N/C(=N/C(=N)N[N+](=O)[O-])SC1 : > 100 µM

Documented TGI of CNC(=O)C1CCCCNC(=O)CCC(NC(=O)OCc2ccccc2)C(=O)N1 (stereo not drawn) (Cbz-Glu-Lys-NHMe; lactam 1-2; configuration not given here) : > 100 µM

Documented TGI of CC1(C)N=C(N)N=C(N)N1c1ccc(OCCCNC(=O)Nc2ccc(S(=O)(=O)F)cc2)c(Cl)c1 : > 100 µM

Documented TGI of C/C(=C\C(=O)O[C@H]1[C@@H]2[C@H](C)CC[C@H]2[C@]2(C)O[C@@]1(C1CCCCC1)C[C@H]2OC(=O)CO)c1ccccc1 : 12 µM

Documented TGI of Cc1ccc(N)c(S)c1 : 46.8 µM

Documented TGI of O=S1OC(c2ccccc2)(c2ccccc2)C(c2ccccc2)(c2ccccc2)O1 : > 100 µM

Documented TGI of CC(NCc1c(O)ccc2c(-c3ccccc3)cc(=O)oc12)C(=O)O (centres undefined) : > 100 µM

Documented TGI of C=CCc1cccc(C=O)c1O : > 100 µM

Documented TGI of O=C(O)C(Cc1cc(I)c(O)c(I)c1)C1CCCCC1 (centres undefined) : 88.7 µM

Documented TGI of CN(C)CC1CC/C(=C\c2ccc(Cl)c(Cl)c2)C1=O (centres undefined) : > 61.7 µM

Documented TGI of C[C@@H]1C(=O)CC2C(C)(C)CCC[C@]2(C)[C@@]12CC[C@]1(C=COC1)O2 (some centres undefined) : > 100 µM

Documented TGI of O=c1nc2n(-c3cccc(Cl)c3)c3ccc([N+](=O)[O-])cc3cc-2c(=O)[nH]1 : 5.68 µM

Documented TGI of Cc1cccc2cc(/C=C/C(=O)/C=C/c3ccc(Cl)cc3)c(=O)[nH]c12 : 0.635 µM

Documented TGI of CC(=O)CCC#Cc1ccccc1C(=O)C(C)=[N+]=[N-] : 47.8 µM

Documented TGI of CCCCCCCCCCCCCCCCOCC(COP(=O)(O)OCC1OC(n2cc(CC)c(=O)[nH]c2=O)CC1O)OC(=O)CCCCCCCCCCCCCCC (centres undefined) : > 100 µM

Documented TGI of O=C1CSC(c2c[nH]c3ccccc23)N1c1cccc(Cl)c1 (centres undefined) : > 100 µM

Documented TGI of COc1ccc2c(-c3csc(-c4c[nH]c5ccc(Br)cc45)n3)c[nH]c2c1 : > 100 µM

Documented TGI of O=c1[nH]c(=S)[nH]cc1CN1CCOCC1 : > 100 µM

Documented TGI of Cc1cc(N(CCC#N)CCC#N)ccc1/C=C(\NC(=O)/C=C/c1ccccc1)C(=O)N=[N+]=[N-] : > 100 µM

Documented TGI of COc1nc(NC2OC(COC(C)=O)C(OC(C)=O)C(OC(C)=O)C2OC(C)=O)c(N=CC=Nc2c(NC3OC(COC(C)=O)C(OC(C)=O)C(OC(C)=O)C3OC(C)=O)nc(OC)[nH]c2=O)c(=O)[nH]1 (centres undefined) : > 100 µM

Documented TGI of O=C(CCc1nnc2s/c(=C\c3ccc([N+](=O)[O-])cc3)c(=O)n12)Nc1ccc(Cl)c(Cl)c1 : > 100 µM

Documented TGI of C=C=C[P+](c1ccccc1)(c1ccccc1)c1ccccc1 : 15.5 µM

Documented TGI of C=C(Br)C(C)(Cl)CCC(Br)C(C)(C)Br (centres undefined) : > 100 µM

Documented TGI of N#Cc1cc2c(cc1C#N)SCCSCCCSCCS2 : > 86.6 µM

Documented TGI of COc1cc2nc(-c3cccs3)nc(Nc3cccc([N+](=O)[O-])c3)c2cc1OC : 32.8 µM

Documented TGI of O=C(O)c1cc(CCc2ccc(O)c(O)c2)ccc1O : > 100 µM

Documented TGI of CCOC(=O)c1nc2ccccc2nc1Oc1cc(OC)cc(OC)c1 : > 100 µM

Documented TGI of CCCCNC(=O)OCCN=c1c2ccccc2ccc2ccccc12 : > 100 µM

Documented TGI of COc1cc2nc3n(c2cc1OC)C(O)c1c(Cl)nc(SC)nc1S3 (centres undefined) : 10.3 µM

Documented TGI of N/N=c1/nc2n(c3ncccc13)C=CNN2 : > 100 µM

Documented TGI of CSC(=S)CC(O)[C@@H]1CC2c3ccccc3C1c1ccccc12 (some centres undefined) : 20.9 µM

Documented TGI of NCCCCCC(CCN)SCC1OC(n2cnc3c(N)ncnc32)C(O)C1O (centres undefined) : > 1500 µM

Documented TGI of CC(C)[Si](OC12CCC(CC1O)CC2CO)(C(C)C)C(C)C (centres undefined) : 20.7 µM

Documented TGI of COCN1C(=O)[C@@H]2CCCN2C(=O)c2cc(OC)c(Cc3ccccc3)cc21 : > 100 µM

Documented TGI of NC(Cc1ccc(CP(=O)(O)O)cc1)C(=O)O (centres undefined) : > 100 µM
